Source of measurements: patent US20230131899A1

Molecular target: E. coli CsgA (Escherichia coli, UniProt P28307)
Construct: made in house; host or cells: E. coli NEB 3016 slyD::kan, pET11d
Sequence (P28307 23-151): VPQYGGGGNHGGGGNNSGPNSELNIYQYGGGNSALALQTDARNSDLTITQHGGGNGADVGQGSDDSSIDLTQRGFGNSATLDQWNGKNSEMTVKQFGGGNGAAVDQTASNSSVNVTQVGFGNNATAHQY
Assay: In vitro ThioflavinT assay of CsgA aggregation (CsgA ThT Assay)
Assay type: biochemical
Settings: read-out: CsgA ThT Assay (2 μM CsgA) % Control Bmax 100 μM, activity range, class symbol; CsgA 2 μM, white plates; compound 100 μM
METRIC: remaining activity at 100 µM

- COMPOUND: "CCc1c(Cc2cccc3ccccc23)c(-c2cccc(C(F)(F)F)c2)c2n(c1=O)C(C(=O)O)CN2C (stereo not shown) [Compound 136]"
  VAL: "11 to 31%"
- COMPOUND: "O=C(O)[C@H]1CN(Cc2ccccc2)c2c(-c3cccc(C(F)(F)F)c3)c(Cc3cccc4ccccc34)c(Br)c(=O)n21 (single isomer, unassigned) [Compound 190]"
  VAL: "31 to 60%"
- COMPOUND: "O=C(O)C1CN(Cc2ccccc2CO)c2c(-c3cccc(C(F)(F)F)c3)c(Cc3cccc4ccccc34)c(Cl)c(=O)n21 (stereo not shown) [Compound 181]"
  VAL: "31 to 60%"
- COMPOUND: "O=C(O)C1CNc2c(-c3cccc(C(F)(F)F)c3)c(Cc3cccc4ccccc34)c(Br)c(=O)n21 (stereo not shown) [Compound 133]"
  VAL: "31 to 60%"
- COMPOUND: "N#Cc1c(Cc2cccc3ccccc23)c(-c2cccc(C(F)(F)F)c2)c2n(c1=O)C(C(=O)O)CN2Cc1ccccc1 (stereo not shown) [Compound 185]"
  VAL: "> 60%"

Turning to the following compound.
Prompt: Return reported remaining activity at 100 µM. Input compound: O=C(O)C1CN(CCc2ccccc2)c2c(-c3cccc(C(F)(F)F)c3)c(Cc3cccc4ccccc34)c(Cl)c(=O)n21 (stereo not shown) [Compound 178]
Response: < 10%

* * *

Molecular target: E. coli CsgA (Escherichia coli, UniProt P28307)
Construct: made in house; host or cells: E. coli NEB 3016 slyD::kan, pET11d
Assay: In vitro ThioflavinT assay of CsgA aggregation (CsgA ThT Assay)
Type: biochemical
Settings: read-out: CsgA ThT Assay (10 μM CsgA) % Control AUC at 1005 minutes, 100 μM (activity range), CsgA 10 μM, black plates; compound 100 μM; 1005 minutes; class symbol
Below is a list of entries, each paired with its recorded remaining activity at 100 µM value.

Worked set:
- COMPOUND: "CCCCN1CC(C(=O)O)n2c(c(-c3cccc(C(F)(F)F)c3)c(Cc3cccc4ccccc34)c(N)c2=O)S1(=O)=O (stereo not drawn) [Compound 093]"
  TESTED TARGET: "E. coli CsgA (Escherichia coli, UniProt P28307)"
  VAL: "31 to 60%"
- COMPOUND: "CCc1c(Cc2cccc3ccccc23)c(-c2cccc(C(F)(F)F)c2)c2n(c1=O)C(C(=O)O)CN(CCCCCO)S2(=O)=O (stereo not drawn) [Compound 114]"
  TESTED TARGET: "E. coli CsgA (Escherichia coli, UniProt P28307)"
  VAL: "11 to 31%"
- COMPOUND: "C=Cc1c(Cc2cccc3ccccc23)c(-c2cccc(C(F)(F)F)c2)c2n(c1=O)C(C(=O)O)CN(C)S2(=O)=O (stereo not drawn) [Compound 078]"
  TESTED TARGET: "E. coli CsgA (Escherichia coli, UniProt P28307)"
  VAL: "11 to 31%"
- COMPOUND: "O=C(O)C1CN(CCCCCO)S(=O)(=O)c2c(-c3cccc(C(F)(F)F)c3)c(Cc3cccc4ccccc34)cc(=O)n21 (stereo not drawn) [Compound 086]"
  TESTED TARGET: "E. coli CsgA (Escherichia coli, UniProt P28307)"
  VAL: "11 to 31%"
- COMPOUND: "O=C(O)c1c(-c2ccccc2)sc2c(-c3cccc(C(F)(F)F)c3)c(Cc3cccc4ccccc34)cc(=O)n12 [Compound 051]"
  TESTED TARGET: "E. coli CsgA (Escherichia coli, UniProt P28307)"
  VAL: "31 to 60%"

Turning to the following compound.
Prompt: Return reported remaining activity at 100 µM. Input compound: CN1CC(C(=O)O)n2c(c(-c3cccc(C(F)(F)F)c3)c(Cc3ccc(NS(C)(=O)=O)c4ccccc34)cc2=O)S1(=O)=O (stereo not drawn) [Compound 067]
Response: 11 to 31%
